The measurements presented in this section are drawn from paper PMC6471066.

Below, each entry is listed alongside its reported pIC50.
- Tested on: promastigotes of Leishmania amazonensis (MHOM/BR/77/LTB0016)
- test.summary: Leishmanicidal capacity assay (Alamar Blue)
- Assay type: cell-based
- experimental.setup: Leishmania amazonensis; promastigote form
pIC50: −log10 of the molar value.

The cases that follow already have their pIC50 on record.
INSERT INTO measurements (compound, metric, observed) VALUES
  ('C=C(C)[C@H]1CC[C@]2(C)C[C@@H]3O[C@@]3(C)CC/C=C(\C)CC[C@@H]12', 'pIC50', 4.43),
  ('C=C(C)[C@H]1C[C@H](O)[C@]2(C)C[C@@H]3O[C@@]3(C)CC/C=C(\C)CC[C@@H]12', 'pIC50', '< 4.00'),
  ('C=C(C)C1CCC2(C)CC=C(C)CCC=C(C=O)C(O)CC12 (stereo not drawn)', 'pIC50', 4.81),
  ('C=C(C)[C@H]1CC(=O)[C@]2(C)C/C=C(\C)CC/C=C(\C)CC[C@@H]12', 'pIC50', '< 4.00'),
  ('C=C(C)[C@H]1CC(=O)[C@]2(C)C[C@@H]3O[C@@]3(C)CC/C=C(\C)CC[C@@H]12', 'pIC50', '< 4.00');

// below: pIC50 requested for another compound
Query (compound): C=C(C)C1CC(=O)C2(C)CC=C(C)CCC=C(C)CCC12 (stereo not drawn) ; field requested: pIC50
< 4.00
